biological target: T1, mouse LTβR extracellular domain fused with an Fc fragment at the C-terminus (mouse, UniProt P50284 31-223); assay: ELISA on coated target-Fc
T1 construct: extracellular domain; Bought; also called mLTβR; not shown: Fc fragment at the C-terminus
T1 sequence (P50284 31-223): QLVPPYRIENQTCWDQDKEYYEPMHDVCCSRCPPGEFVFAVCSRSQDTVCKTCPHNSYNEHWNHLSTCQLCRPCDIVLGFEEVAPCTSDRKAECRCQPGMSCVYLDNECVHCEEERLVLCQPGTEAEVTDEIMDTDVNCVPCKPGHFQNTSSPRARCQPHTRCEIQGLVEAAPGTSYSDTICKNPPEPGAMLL
REPORTED_PROPERTY: EC50 (µg/mL)

• LIGHT-37 (ligand, Printed mutations: A190T, F202Y, K214E; Soluble protein carries an N-terminal His tag) DGPAGSWEQLIQERRSHEVNPAAHLTGANSSLTGSGGPLLWETQLGLAFLRGLSYHDGALVVTKAGYYYIYSKVQLGGVGCPLGLASTITHGLYKRTPRYPEELELLVSQQSPCGRTTSSSRVWWDSSYLGGVVHLEAGEEVVVRVLDERLVRLRDGTRSYFGAFMV = 0.0678
• LIGHT-29 (ligand, Printed mutations: S160N, L220S; Soluble protein carries an N-terminal His tag) DGPAGSWEQLIQERRSHEVNPAAHLTGANSSLTGSGGPLLWETQLGLAFLRGLSYHDGALVVTKAGYYYIYSKVQLGGVGCPLGLANTITHGLYKRTPRYPEELELLVSQQSPCGRATSSSRVWWDSSFLGGVVHLEAGEKVVVRVSDERLVRLRDGTRSYFGAFMV = 0.0209
• LIGHT-28 (ligand, Printed mutations: S160N, K214E, L227M; Soluble protein carries an N-terminal His tag) DGPAGSWEQLIQERRSHEVNPAAHLTGANSSLTGSGGPLLWETQLGLAFLRGLSYHDGALVVTKAGYYYIYSKVQLGGVGCPLGLANTITHGLYKRTPRYPEELELLVSQQSPCGRATSSSRVWWDSSFLGGVVHLEAGEEVVVRVLDERLVRMRDGTRSYFGAFMV = 0.256
• LIGHT-11 (ligand, Printed mutations: G150S, L220S; Soluble protein carries an N-terminal His tag) DGPAGSWEQLIQERRSHEVNPAAHLTGANSSLTGSGGPLLWETQLGLAFLRGLSYHDGALVVTKAGYYYIYSKVQLSGVGCPLGLASTITHGLYKRTPRYPEELELLVSQQSPCGRATSSSRVWWDSSFLGGVVHLEAGEKVVVRVSDERLVRLRDGTRSYFGAFMV = 0.0233
• LIGHT-42 (ligand, Printed mutations: G150R, L220S; Soluble protein carries an N-terminal His tag) DGPAGSWEQLIQERRSHEVNPAAHLTGANSSLTGSGGPLLWETQLGLAFLRGLSYHDGALVVTKAGYYYIYSKVQLRGVGCPLGLASTITHGLYKRTPRYPEELELLVSQQSPCGRATSSSRVWWDSSFLGGVVHLEAGEKVVVRVSDERLVRLRDGTRSYFGAFMV = 0.025
• LIGHT-10 (ligand, Printed mutations: G150S, T161P, L220S; Soluble protein carries an N-terminal His tag) DGPAGSWEQLIQERRSHEVNPAAHLTGANSSLTGSGGPLLWETQLGLAFLRGLSYHDGALVVTKAGYYYIYSKVQLSGVGCPLGLASPITHGLYKRTPRYPEELELLVSQQSPCGRATSSSRVWWDSSFLGGVVHLEAGEKVVVRVSDERLVRLRDGTRSYFGAFMV = 0.0804
